Provenance of the data: patent US6515124B2

- ASSAYED SYSTEM: LFA-1 binding to immobilized ICAM-1 (Homo sapiens, UniProt P05107+P20701)
- Construct: made in house; host or cells: transfected 293 cells (LFA-1)
- Sequence (P20701 26-1170): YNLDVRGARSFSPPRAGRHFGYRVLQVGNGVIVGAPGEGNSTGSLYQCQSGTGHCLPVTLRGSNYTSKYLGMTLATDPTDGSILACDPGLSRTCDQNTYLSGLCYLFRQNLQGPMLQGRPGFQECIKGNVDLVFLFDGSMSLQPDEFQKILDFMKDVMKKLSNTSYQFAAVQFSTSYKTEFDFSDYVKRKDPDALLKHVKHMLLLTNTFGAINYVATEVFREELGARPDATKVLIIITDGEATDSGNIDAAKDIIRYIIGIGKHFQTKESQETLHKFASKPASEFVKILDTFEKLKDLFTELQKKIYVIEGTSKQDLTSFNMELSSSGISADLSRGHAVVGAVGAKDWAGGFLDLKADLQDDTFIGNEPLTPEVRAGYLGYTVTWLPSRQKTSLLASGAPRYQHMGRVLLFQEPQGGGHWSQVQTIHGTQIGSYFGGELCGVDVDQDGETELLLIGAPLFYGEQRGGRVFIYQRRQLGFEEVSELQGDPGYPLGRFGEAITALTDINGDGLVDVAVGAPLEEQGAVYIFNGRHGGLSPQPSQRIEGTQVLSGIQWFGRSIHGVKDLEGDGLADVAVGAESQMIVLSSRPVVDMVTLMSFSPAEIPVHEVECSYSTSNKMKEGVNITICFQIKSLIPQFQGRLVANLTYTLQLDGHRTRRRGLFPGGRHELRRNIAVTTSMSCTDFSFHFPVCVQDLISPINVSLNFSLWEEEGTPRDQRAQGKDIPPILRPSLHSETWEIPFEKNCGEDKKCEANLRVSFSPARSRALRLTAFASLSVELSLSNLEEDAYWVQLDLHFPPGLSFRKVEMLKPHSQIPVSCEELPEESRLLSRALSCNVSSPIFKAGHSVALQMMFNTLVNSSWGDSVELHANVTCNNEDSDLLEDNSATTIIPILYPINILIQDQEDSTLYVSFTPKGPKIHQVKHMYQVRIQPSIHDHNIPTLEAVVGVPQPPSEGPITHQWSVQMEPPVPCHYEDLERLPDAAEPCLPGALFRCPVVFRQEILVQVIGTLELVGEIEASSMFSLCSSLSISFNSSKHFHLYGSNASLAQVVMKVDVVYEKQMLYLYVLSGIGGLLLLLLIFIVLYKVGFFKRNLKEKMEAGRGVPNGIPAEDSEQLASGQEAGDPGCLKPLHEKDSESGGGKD
- Sequence (P05107 23-769): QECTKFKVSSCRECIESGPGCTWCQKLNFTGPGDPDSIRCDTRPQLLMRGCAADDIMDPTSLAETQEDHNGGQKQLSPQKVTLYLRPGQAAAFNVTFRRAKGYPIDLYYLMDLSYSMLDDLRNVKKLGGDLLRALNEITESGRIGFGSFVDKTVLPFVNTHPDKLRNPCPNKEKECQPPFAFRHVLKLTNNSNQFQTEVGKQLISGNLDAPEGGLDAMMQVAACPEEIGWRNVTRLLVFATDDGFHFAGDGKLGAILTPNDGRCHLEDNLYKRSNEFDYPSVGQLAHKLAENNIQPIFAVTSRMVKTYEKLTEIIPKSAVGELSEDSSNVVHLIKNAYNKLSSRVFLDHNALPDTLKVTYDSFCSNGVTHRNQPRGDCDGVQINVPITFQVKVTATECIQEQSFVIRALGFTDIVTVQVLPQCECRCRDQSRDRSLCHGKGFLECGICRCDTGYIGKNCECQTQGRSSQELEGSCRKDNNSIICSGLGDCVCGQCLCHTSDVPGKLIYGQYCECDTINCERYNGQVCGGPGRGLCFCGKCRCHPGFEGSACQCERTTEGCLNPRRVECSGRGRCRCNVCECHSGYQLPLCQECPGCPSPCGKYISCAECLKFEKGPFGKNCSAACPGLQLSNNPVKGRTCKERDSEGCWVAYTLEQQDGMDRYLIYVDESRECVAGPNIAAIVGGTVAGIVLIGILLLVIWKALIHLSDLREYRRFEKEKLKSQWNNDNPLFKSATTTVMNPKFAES
- MEASUREMENT PROTOCOL: LFA-1/ICAM-1 Protein-Protein Assay (solid-phase ELISA)
- ASSAY CONTEXT: 5dICAM-Ig coated plates; membrane-bound LFA-1 from transfected 293 cells
pIC50: −log10 of the molar value.
MEASUREMENT LABEL: pIC50

(a) O=C(O)/C(=C/c1cnc2ccccc2c1)NC(=O)c1ccc(C(=O)NCc2cccc(O)c2)cc1Br [Example 277]
(b) Cc1nc(C)c(/C=C(\NC(=O)c2ccc(C(=O)NCc3cccc4[nH]ccc34)cc2Br)C(=O)O)s1 [Example 249]
Input: Min pIC50? a | b Give the label under which the chosen entry appears.
Output: b
(b: 8.24, a: 9.28)

(P) O=C(O)/C(=C/c1ccc2nonc2c1)NC(=O)c1ccc(C(=O)NCc2cccc(O)c2)cc1Cl [Example 246]
(Q) Cc1nc(/C=C(\NC(=O)c2ccc(C(=O)NCc3cccc(O)c3)cc2Br)C(=O)O)cs1 [Example 235]
(R) Cc1cc(C(=O)N[C@H](C)c2cccc3ccccc23)cc(C)c1C(=O)N/C(=C\c1ncc[nH]1)C(=O)O [Example 236]
Input: Thanks in advance: please rank these 3 entries by pIC50, highest to lowest. Lab note: record answer as labels in requested order.
Output: P, R, Q
(P: 8.62, R: 7.59, Q: 7.37)

(1) Cc1cc(C(=O)NCc2cccc(O)c2)ccc1C(=O)N/C(=C\c1ccccc1)C(=O)O [Example 311]
(2) O=C(O)/C(=C/c1ccc(Br)cc1)NC(=O)c1ccc(C(=O)NCc2cccc(O)c2)cc1Cl [Example 314]
Input: Among 1 and 2 , which shows a numerically higher pIC50 result? Give the label under which the chosen entry appears.
Output: 2
